- System: SK-OV-3 ovarian
- Assay Remarks: NCI tumour cell line growth inhibition, 48 h
Endpoint Label: TGI

Sample answers from the record:
molecule=Cc1cn2c(/C=C3\C(=O)N(C)c4ccc(O)cc43)c(C)nc2s1 result="43.2 µM"
molecule=O=C1c2ccc3c4ccccc4n(Cc4ccccc4)c3c2C(=O)N1c1ccccc1 result="> 55.6 µM"
molecule="O=C1CCCCC(=O)OC2(CCCCC2=O)CC1 (stereo not given)" result="> 100 µM"

Look at each molecule and report its TGI.
1. Nn1c(CCCCCCCCc2nnc(COc3ccc(Cl)cc3)n2N)nnc1COc1ccc(Cl)cc1
2. CCOC(=O)c1c[nH]c2oc(/C=N/N3CC(CN4CCOCC4)OC3=O)cc2c1=O (stereo not given)
3. C=C1C(=O)O[C@H]2/C=C(/C)C3=CC(=O)[C@@](C)(C[C@@H](OC(=O)/C(C)=C\C)C12)O3 (stereo not given in full)
4. O=c1c2ncn(COCCCl)c2n(-c2ccccc2)c(=S)n1-c1ccccc1
5. COc1ccc2c(c1)C(C)Cc1c(ncnc1-n1c(C)nc3ccccc31)N2C (stereo not given)
6. N=C(N)SCc1cccc(-c2nc3ccccc3c(=O)o2)c1
7. CCCCCCCCCCCCCCCCCC(=O)O[C@H](COC(=O)CCCCCCCCCCC)COC(=O)CCCCCCCCCCCCCCC

Result:
> 100 µM
> 100 µM
26 µM
> 100 µM
18.5 µM
> 100 µM
> 100 µM

* * *

- System: IGROV1 ovarian
- Assay Remarks: NCI tumour cell line growth inhibition, 48 h
Endpoint Label: TGI

compound="CC1CCC(=O)C(C(=O)CC2CC(=O)NC(=O)C2)C1 (stereo unspecified)" result="> 100 µM"

Look at each compound and report its TGI.
1. CC(=O)c1ccc2c3c1[C@@H]1O[C@@H]1c1cccc(c1-3)[C@@H]1O[C@H]21
2. O=C(Nc1ccc(-n2cc(-c3ccncc3)c(-c3ccc(Cl)c(O)c3)n2)cc1)Nc1ccc(Cl)c(C(F)(F)F)c1
3. CC(C)CCCC(C)[C@H]1CCC2[C@H]3C(CC[C@@]21C)[C@@]1(C)CCC=C[C@]12C[C@@H]2[C@@H]3O (stereo partly specified)
4. O=C1NC(N/N=C/C(O)C(O)C(O)CO)=N/C1=C\c1ccco1 (stereo unspecified)
5. CC(C)CNC(=O)O
6. C=CCNC(=O)N(CCC)CCCCC(NC(C)=O)C(=O)NCc1ccccc1 (stereo unspecified)
7. COc1cc(C2=C(c3cn(C)c4ccccc34)COC2=O)cc(OC)c1OC
8. CCc1ccc2oc(-c3cc(O)c(-c4nc5cc(CC)ccc5o4)cc3O)nc2c1

Result:
2.44 µM
4.96 µM
> 100 µM
> 100 µM
> 100 µM
> 100 µM
21.7 µM
> 100 µM

Look at each compound and report its TGI.
1. CCn1nc2c3c(ncn3C(C)(C)O2)c1=O
2. CN(C)Cc1cc(C(=O)/C=C/c2ccccc2Cl)cc(CN(C)C)c1O

Result:
> 100 µM
28 µM

* * *

- Tested on: NCI-H460 lung
Endpoint Label: GI50

Sample answers from the record:
molecule=CN(CCCNC(=O)Cc1ccc2ccc3cccc4ccc1c2c34)CCCNc1cc(-c2ccc3ccccc3c2)nc2ccccc12 endpoint_label=GI50 result="1.65 µM"
molecule=O=C(Nc1ccc(-n2cc(-c3ccncc3)c(-c3ccc(Cl)c(O)c3)n2)cc1)Nc1ccc(Cl)c(C(F)(F)F)c1 endpoint_label=GI50 result="1.7 µM"
molecule="COc1ccc2c(c1)C(C)Cc1c(ncnc1-n1c(C)nc3ccccc31)N2C (stereo unspecified)" endpoint_label=GI50 result="3.85 µM"
molecule=CC(=O)/C=C/c1ccc(C#Cc2ccccc2)s1 endpoint_label=GI50 result="16.2 µM"
molecule=COCCOc1cnc2ccn([C@H](C)c3nnc4c(F)cc(-c5cnn(C)c5)cn34)c(=O)c2c1 endpoint_label=GI50 result="> 100 µM"

Problem: What value of GI50 has been reported for the following molecule? "NC(N)=NCCCCCNc1noc(Cc2c[nH]c3cc(Br)ccc23)n1"
Result: 12.4 µM

* * *

- System: SK-MEL-2 melanoma
- Assay Remarks: NCI tumour cell line growth inhibition, 48 h
Record form. Attribute: TGI. Fill in for each entry.

Sample answers from the record:
compound="O=C(NC(Cc1ccc(I)cc1)C(=O)O)c1ccc(Br)cc1 (stereo not given)" result="> 100 µM"
compound="CC1CCC(=O)C(C(=O)CC2CC(=O)NC(=O)C2)C1 (stereo not given)" result="> 100 µM"
compound=CCn1nc2c3c(ncn3C(C)(C)O2)c1=O result="> 100 µM"

Look at each compound and report its TGI.
1. O=c1c2ncn(COCCCl)c2n(-c2ccccc2)c(=S)n1-c1ccccc1
2. O=C(OCC1OC2OC(c3ccccc3)(n3ccc4c([N+](=O)[O-])ccnc43)OC2C1OC(=O)c1ccccc1)c1ccccc1 (stereo not given)
3. CCCSc1ccc2[nH]c(/N=C/c3ccco3)cc2c1
4. COc1ccc(C2c3cc(OC)c(OC)cc3C(Cc3ccc([N+](=O)[O-])cc3)C2c2ccc([N+](=O)[O-])cc2)cc1OC (stereo not given)
5. COC(=O)[C@@H]1CCCN1CCN1CCC[C@H]1C(=O)OC
6. COC(=O)/C(C)=C/[N+](=O)[O-]
7. O=c1nc2c(c(-c3ccccc3Cl)[nH]1)COC/C2=C\c1ccccc1Cl

Result:
1. > 100 µM
2. > 100 µM
3. 59 µM
4. > 100 µM
5. > 100 µM
6. 38.7 µM
7. > 100 µM

* * *

Record form. Attribute: TGI. Fill in for each entry.
- System: NCI-H460 lung
- Assay Remarks: NCI tumour cell line growth inhibition, 48 h

Sample answers from the record:
compound=CN(C)C(=S)/N=c1\ss/c(=N\C(=S)N(C)C)n1-c1ccc(Cl)c(Cl)c1 endpoint_label=TGI result="> 100 µM"
compound=Cc1ccc([C@H]2CC(=O)C[C@H](c3ccc(C)cc3)C23C(=O)c2ccccc2C3=O)cc1 endpoint_label=TGI result="> 100 µM"
compound=C[C@]12CCc3nc(Nc4ccccc4)sc3C1=CC[C@@H]1[C@@H]2CC[C@]2(C)/C(=N/NC(N)=S)CC[C@@H]12 endpoint_label=TGI result="> 100 µM"

Look at each compound and report its TGI.
1. Cc1cc(C)cc(Nc2cc(=O)[nH]c(=O)[nH]2)c1
2. C[n+]1cc(C(O)c2ccc3c(c2)OCO3)c2ccccc2c1 (stereo not given)

Result:
1. > 100 µM
2. > 100 µM

Look at each compound and report its TGI.
1. C[C@]12CC[C@H](O)C[C@H]1CC[C@@H]1[C@@H]2CC[C@]2(C)[C@@H](C3=CC(=O)OC3)CC[C@]12O
2. Nc1ccc2[nH]c3c(-c4ccccc4)nccc3c2c1
3. CC(C)C(=O)/C=C/c1ccc(Br)cc1
4. COc1ccc2c(c1)C(C)Cc1c(ncnc1-n1c(C)nc3ccccc31)N2C (stereo not given)
5. CCN1C(=O)C(=C/C=C/c2ccc([N+](=O)[O-])cc2)C(=O)N(CC)C1=S

Result:
1. 0.139 µM
2. > 100 µM
3. 30.1 µM
4. 14.4 µM
5. > 100 µM

* * *

- Tested on: HS 578T breast
- Assay Remarks: NCI tumour cell line growth inhibition, 48 h; in the data active means GI50 below about 0.43 µM; inactive means the rest
Pick from y = active, n = inactive when you respond.

molecule="Cc1cc(C2CC(O)C(CO)O2)cc2c(=O)[nH]c(N)nc12 (centres undefined)" category=n
molecule=CCn1c(CO)nn(-c2cc(O[C@@H](C)C(F)(F)F)c(C(=O)Nc3c(F)cccc3Cl)cc2F)c1=O category=n
molecule=O=C(/C=C/c1cc(CN2CCOCC2)c(O)c2ncccc12)c1cc(CN2CCOCC2)c(O)c2ncccc12 category=y
molecule="COc1ccc2c(c1)C(C)Cc1c(ncnc1-n1c(C)nc3ccccc31)N2C (centres undefined)" category=n
molecule=CC(=O)O[C@H](C[C@H](C(C)C)N(C)C(=O)[C@@H](NC(=O)[C@H]1CCCCN1C)C(C)C)c1nc(C(=O)N[C@@H](Cc2ccccc2)C[C@H](C)C(=O)O)c(CCOCc2ccccc2)s1 category=y

Problem: I would be grateful if you could indicate the recorded call for "Nc1nc(SN=Nc2ccc(S(N)(=O)=O)cc2)c2[nH]cnc2n1" .
Result: n

Problem: I would be grateful if you could indicate the recorded call for "[Au+].[Au+].[Au+].[c-]1nccn1Cc1ccccc1.[c-]1nccn1Cc1ccccc1.[c-]1nccn1Cc1ccccc1" .
Result: n

Problem: I would be grateful if you could indicate the recorded call for "O=C(Nc1ccc(Br)cc1)c1ccc(Cl)c(Cl)c1" .
Result: n

Problem: I would be grateful if you could indicate the recorded call for "COc1ccc(-c2c[nH]c(=S)n2-c2ccc(OC)cc2)cc1" .
Result: n

* * *

Record form. Attribute: TGI. Fill in for each entry.
- Test system: BT-549 breast
- Assay Remarks: NCI tumour cell line growth inhibition, 48 h

Sample answers from the record:
compound=COc1cc(CNc2ccc(SC)cc2)cc(OC)c1OC result="> 100 µM"
compound=COc1ccc(OC)c2c(/C=C/c3ccc(N(C)C)cc3)ccnc12 result="> 10 µM"
compound=Nn1c(CCCCCCCCc2nnc(COc3ccc(Cl)cc3)n2N)nnc1COc1ccc(Cl)cc1 result="> 100 µM"
compound=COc1cc2ncn(-c3cc(OCCc4ccccc4)c(C(N)=O)s3)c2cc1OC result="> 25 µM"
compound="CC(=O)N1N=C(c2ccc3ccccc3c2O)CC1C(=O)c1ccco1 (configuration not stated)" result="> 100 µM"
compound=O=c1[nH]/c(=C/c2ccc(OCc3ccccc3)cn2)c(=O)[nH]/c1=C/c1ccc(O)cc1 result="8.63 µM"
compound=CN(C)Cc1cc(C(=O)/C=C/c2ccccc2Cl)cc(CN(C)C)c1O result="20 µM"
compound=Oc1cn(-c2ccc(Cl)cc2)nc1-c1n[nH]c(=S)n1C1CCCCC1 result="> 100 µM"
compound=O=C(CSC(c1ccccc1)c1ccccc1)N/N=C/c1ccc(Cl)cc1Cl result="75.8 µM"
compound=NC(=O)NNC(=O)c1nc[nH]c1[N+](=O)[O-] result="> 100 µM"

Look at each compound and report its TGI.
1. O=c1[nH]nc(Cc2ccc([N+](=O)[O-])cc2)n1CCO
2. COc1cc(C2SCC(=O)N2c2ccc(-c3ccc(-n4c(-c5ccccc5)nc5ccccc5c4=O)cc3)cc2)cc(OC)c1OC (configuration not stated)
3. Cc1cn(C2CC(n3cc(Cn4cc(Br)c(=O)[nH]c4=O)nn3)C(CO)O2)c(=O)[nH]c1=O (configuration not stated)

Result:
["> 100 µM", "55.4 µM", "> 100 µM"]
